tested on: HS 578T breast; assay: NCI-60 one-dose screen, 48 h (100 = growth as untreated, 0 = no growth, -100 = all killed); conditions: 10 µM unless noted
The panel holds about 83,000 compounds, 20% with a hit somewhere; the sample as a whole holds those more often.
# note: exactly 70% is not below, so it is 0 (no); use 1 (yes) for growth strictly under it

Lab note: growth threshold 70%. Does this compound come in strictly under it? `C#C[C@@]1(O)[C@@H](CO)O[C@@H](n2cnc3c(-c4ccccc4)ncnc32)[C@@H]1O`
0 (no)

Record `O=C(NC[C@H](O)CN1CCc2ccccc2C1)c1cc(NC2COC2)ncn1` : is its growth strictly below 70%?
0 (no)

Given `COc1ccc(-c2cn(-c3ccc(Cl)cc3)c(=S)[nH]2)cc1OC` , is recorded growth strictly lower than 70%?
0 (no)

I wonder whether `Cc1cc(Nc2nc(SCc3ccc(C(=O)Nc4ccc(F)cc4N)cc3)nn3cccc23)n[nH]1` has growth below 70%. Can you tell?
1 (yes)

A record lists `C#C[C@@]1(O)[C@@H](CO)O[C@@H](n2cc(Br)c3c(N)ncnc32)[C@@H]1O` . Is its growth below 70%?
1 (yes)

Dear reviewer, please state whether COc1ccc(C2C(c3ccccc3)C(=O)N2c2cc(OC)c(OC)c(OC)c2)cc1I (centres undefined) has growth strictly beneath 70%.
1 (yes)

Quick check: does `C=C1C(=O)O[C@H]2[C@H]1CC/C(COC(=O)c1c[nH]c3ccccc13)=C\CC[C@@]1(C)O[C@@H]21` have growth under 70%?
1 (yes)

I'd appreciate it if you could check whether `COc1ccc(-c2cc(-c3nnc(SCC(=O)Nc4ccc(C(C)=O)cc4)o3)c3ccccc3n2)cc1` has growth smaller than 70%.
1 (yes)

Would you kindly verify if growth of `Oc1ccc(CNNc2ccnc3c(O)cccc23)c2cccnc12` is strictly less than 70%?
1 (yes)

Lab log: compare recorded growth with 70%; is it strictly lower for `O=S(=O)(O)c1ccc(N=NSc2ccc3ccccc3c2)cc1` ?
0 (no)

Please indicate whether the reported growth of `CCOC(=O)/C=C1\SC(=Nc2ccc(C#N)cc2)N(CCN2C(=O)/C(=C/C(=O)OCC)SC2=Nc2ccc(C#N)cc2)C1=O` is strictly below 70%.
1 (yes)

# strict comparison: is reported growth < 70%? input = `NS(=O)(=O)c1ccc(-n2ncc(NC(=O)Nc3ccc(S(=O)(=O)Nc4nccs4)cc3)c2-c2ccccc2)cc1`
0 (no)

growth strictly < 70% for this compound? `CCCCCCN1C(=O)CN=C1Nc1ccc2cc3ccc(NC4=NCC(=O)N4CCCCCC)cc3nc2c1`
1 (yes)

###

test system: A549/ATCC NSCLC; assay: NCI-60 one-dose screen, 48 h (100 = growth as untreated, 0 = no growth, -100 = all killed); settings: 10 µM unless noted
The panel holds about 83,000 compounds, 20% with a hit somewhere; the sample as a whole holds those more often.
Would you mind labelling by growth? At or over 20% is Criterion met, under is Criterion not met.

Solved cases below.
INSERT INTO assay_data (compound, target_system, category_label) VALUES
  ('O=c1cc(/C=N\Nc2nc(-c3ccc(Cl)cc3Cl)cs2)c2cc(Cl)ccc2o1', 'A549/ATCC NSCLC', 'Criterion met'),
  ('Nc1c(C(=O)Nc2cccc3ccccc23)sc2nc3c(cc12)COCC3', 'A549/ATCC NSCLC', 'Criterion met'),
  ('CN1CC=C(c2cc(NC(=O)Nc3ccc(Oc4ccnc(NC(=O)C5CC5)c4)c(F)c3)cc(C(F)(F)F)c2)CC1', 'A549/ATCC NSCLC', 'Criterion not met'),
  ('COc1cc(-c2cn(-c3ccc(Cl)c(Cl)c3)c(=O)[nH]2)cc(OC)c1OC', 'A549/ATCC NSCLC', 'Criterion met'),
  ('CCCCc1ccc(N=Nc2ccc(OCC[N+](C)(C)C)cc2)cc1', 'A549/ATCC NSCLC', 'Criterion met');

Is it the case that `COc1ccc(/C=C/C(=O)/C=C(/C=C/c2ccc(OC)c(OC)c2)OB(F)F)cc1OC` has growth reaching or exceeding 20%?
Criterion met

Hello, I need to know if `COc1ccccc1C(=O)/C=C/c1cc2cccc(OC)c2[nH]c1=O` has measured growth not below 20%. Thanks!
Criterion met

Would you say `COC(=O)/C=C1\SC(=Nc2ccc(C(F)(F)F)cc2)N(CCc2c[nH]c3ccccc23)C1=O` shows growth at minimum 20%?
Criterion not met

I'd appreciate it if you could say whether `S=C(Nc1ccccc1)c1ccccn1` has growth at least equal to 20%.
Criterion met

For this compound, is measured growth 20% or higher? `C=C(C)[C@@H]1CC[C@]2(C(=O)NCCCO)CC[C@]3(C)[C@H](CC[C@@H]4[C@@]5(C)CCCNC(C)(C)[C@@H]5CC[C@]43C)[C@@H]12`
Criterion met

Check this compound for growth at or above 20%: `C#C[C@@]1(O)[C@@H](CO)O[C@@H](n2ccc3c(N)ncnc32)[C@@H]1O`
Criterion not met

In plain terms: is recorded growth at least 20% for `COC(=O)c1ccc(NC(=O)CSc2nc(-c3ccc(F)cc3)nc3ccccc23)cc1` ?
Criterion met

Test whether the compound Cc1ccccc1NC(=O)c1sc2nc(C)c(C(C)O)cc2c1N (stereo not drawn) records growth of 20% or higher.
Criterion met

Check the entry `O=C(Nc1cc(Nc2ncccc2-c2ncnc3nc[nH]c23)ccc1F)c1cc(C(F)(F)F)cc(C(F)(F)F)c1` : does growth equal or exceed 20%?
Criterion not met
